System: HT-29
assayComment: Induction of cell cycle arrest in human HT-29 cells incubated for 20 hrs by phH3 staining based analysis
quantityKind: pEC50
Quick note: pEC50 values are minus log10 of concentrations in mol/L.

Problem: Retrieve pEC50 on HT-29; query NC(=O)Nc1cc(-c2cccc(F)c2)sc1C(=O)N[C@H]1CCCNC1
Solution: 6.21
